tested_target: acetylcholinesterase (Rattus norvegicus, UniProt P37136)
Sequence (P37136 32-614): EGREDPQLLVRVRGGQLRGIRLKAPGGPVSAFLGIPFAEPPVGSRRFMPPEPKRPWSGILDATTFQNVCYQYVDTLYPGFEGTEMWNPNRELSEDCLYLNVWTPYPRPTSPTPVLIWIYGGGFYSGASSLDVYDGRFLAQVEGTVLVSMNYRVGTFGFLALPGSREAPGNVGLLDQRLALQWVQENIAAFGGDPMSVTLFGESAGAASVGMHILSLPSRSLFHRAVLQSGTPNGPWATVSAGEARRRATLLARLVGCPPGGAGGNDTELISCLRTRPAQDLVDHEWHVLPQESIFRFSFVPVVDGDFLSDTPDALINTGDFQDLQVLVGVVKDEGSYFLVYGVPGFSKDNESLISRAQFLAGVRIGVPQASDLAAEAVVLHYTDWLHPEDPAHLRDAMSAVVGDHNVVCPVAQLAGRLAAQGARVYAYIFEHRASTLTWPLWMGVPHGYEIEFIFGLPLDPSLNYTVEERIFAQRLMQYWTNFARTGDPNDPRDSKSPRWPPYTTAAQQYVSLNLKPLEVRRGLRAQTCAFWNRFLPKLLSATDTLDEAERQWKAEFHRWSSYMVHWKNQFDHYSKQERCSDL
measurement_label: IC50 (nM)
Numbers only here, please. The scale is nM.

CCOCOc1cc2c(cc1OCOCC)C(=O)C(CC1(F)CCN(Cc3ccccc3F)CC1)C2 (centres unmarked) [DC79] = 1.86
CCOc1cc2c(cc1OCC)C(=O)C(CC1(F)CCN(Cc3ccccc3F)CC1)C2 (centres unmarked) [DC77] = 0.9
COc1cc2c(cc1OC)C(=O)C(CC1(F)CCN(Cc3ccccc3F)C(C)C1)C2 (centres unmarked) [DC109] = 10.9
O=C1c2cc(Cl)c(Cl)cc2CC1CC1(F)CCN(Cc2ccccc2F)CC1 (centres unmarked) [DC106] = 500
COc1cc2c(cc1OC)C(=O)C(CC1(F)CCN(Cc3cc(F)c(F)cc3F)CC1)C2 (centres unmarked) [DC17] = 2
O=C1c2cc(OCC(F)(F)F)c(OCC(F)(F)F)cc2CC1CC1(F)CCN(Cc2ccccc2F)CC1 (centres unmarked) [DC103] = 0.86
COc1cc2c(cc1OC)C(=O)C(CC1(F)CCN(CCc3ccccc3)CC1)C2 (centres unmarked) [DC110] = 12.3
COc1cc2c(cc1OC)C(=O)C(CC1(F)CCN(Cc3cccc(Br)c3)CC1)C2 (centres unmarked) [DC11] = 4.33

Query block: Provide measured IC50 on acetylcholinesterase (Rattus norvegicus, UniProt P37136) for COc1cc2c(cc1OC)C(=O)C(CC1(F)CCN(Cc3c(F)cccc3[N+](=O)[O-])CC1)C2 (centres unmarked) [DC8] please.
Result block: 27100

Query block: Output reported IC50 of the compound O=C1c2cc(OCC(F)F)c(OCC(F)F)cc2CC1CC1(F)CCN(Cc2ccccc2F)CC1 (centres unmarked) [DC105] on acetylcholinesterase (Rattus norvegicus, UniProt P37136).
Result block: 0.99

Query block: State the measured IC50 (acetylcholinesterase (Rattus norvegicus, UniProt P37136)) of COc1cc2c(cc1OC)C(=O)C(CC1(F)CCN(Cc3ccccc3)CC1)C2 (centres unmarked) [DC19]
Result block: 0.96
